B1: CPEB3 Ribozyme (parent)
chain: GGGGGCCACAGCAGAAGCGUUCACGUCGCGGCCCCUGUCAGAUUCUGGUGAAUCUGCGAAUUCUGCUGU

- Variants of: B1
- Assay Text: self-cleavage, relative activity (ratio to wild type); higher = more cleavage; co-transcriptional
Returns MET if the recorded self-cleavage is greater than or equal to 0.2, and NOT MET otherwise.

1. GGGGGCCACAGCAGAAGCGUUCACGUCGUGGCCCCUGUCAGAUUCUGGUGAAUCUGCGAUUUCUGCUGU	MET
2. GGGUGCCACAGCAGAAGCGUUAACGUCGCGGCCCCUGUCAGAUUCUGGUGAAUCUGCGAAUUCUGCUGU	NOT MET
3. GGGGGCCACAGCAGUAGCGUUCACGUCGCGGCCCCUGUCAGAUUCUGGUGAAUCUGCGUAUUCUGCUGU	MET
4. GGGGGCCACAGCAGAAGCGUUCACGUCGCGGCCCCUGUCAGAUUCUGGUGAAUGUGCGAAUUCUGCUAU	MET
5. GGGGGCCACAGCAGAAGCGUUCACGUCGCGGCCCCUGUCAGAUUCUGGUGCAUCUGCCAAUUCUGCUGU	MET
6. GGGGGCCACAGCAGAAGCGUUCACGUCGCGGCCCCUGUCUGAUUCUGGUAAAUCUGCGAAUUCUGCUGU	MET
7. GGGGGCCACAGCAGUAGCGUUCACGUCGCGGCCCCUGUCAGAUUCUGGUGAAUCUGCGAAUUCUGCUGU	MET
8. GGGGGCCACAGCAGAAGCGUGCACGUCGCGGCCCCUGUCAGAUUCUGGUGAAUCUGCGAAUGCUGCUGU	MET
9. GGGGGCCACAGCAGAAACGUUCUCGUCGCGGCCCCUGUCAGAUUCUGGUGAAUCUGCGAAUUCUGCUGU	MET
10. GGGGGCCACAGCAGAAGCGUUCAGGUCGCGGCCCCUGUCAGAUUCUGGUGAAUCUGGGAAUUCUGCUGU	NOT MET
11. GCGGGCCACAGCAGAAGCGUUCACGUCGCGGCCCCUGUCAGAUUCUGGUGAAUCUGCGAAUUCUGCUGU	NOT MET
12. AGGGGCCACAGCAGAAGCGUUCACCUCGCGGCCCCUGUCAGAUUCUGGUGAAUCUGCGAAUUCUGCUGU	NOT MET
13. GGGGGCCACAGCAGAAGCGUUCACGUCGCGGCACCUGUCAGAGUCUGGUGAAUCUGCGAAUUCUGCUGU	MET
14. GGGGGCCACAGCAGAAGCGUCCACGUCGCGGCCCCUGGCAGAUUCUGGUGAAUCUGCGAAUUCUGCUGU	MET
15. GGGGGCCACAGCAGAAGCGUUCACGUCGCAGCCCCUGUCAGAUUCUGGUGAAUCUCCGAAUUCUGCUGU	MET
16. CGGGGCCACAGGAGAAGCGUUCACGUCGCGGCCCCUGUCAGAUUCUGGUGAAUCUGCGAAUUCUGCUGU	MET
17. GGGGGCCACAGCAGAAGCGUUCACGUCGCGGCCUCUGUCAGAUUCUGGUGAAUCUGCGAAUUCUGCUGU	MET
18. GGGGGCCACAGCAGAAGCGUUCACAUCGCGGCCCCUGUCAGAUUCUGGUGAAUCUGCGAAUUCUACUGU	NOT MET
19. GGGGGCCACAGCAGAAGCGUUCAUGUCGCGGCCCCUGUCGGAUUCUGGUGAAUCUGCGAAUUCUGCUGU	MET
20. GGGGGCCACAGCAGAAGCGUUCACGUCGCGGCCCCUGUCAGAGUCUGGUGAAUCUGCGACUUCUGCUGU	MET
21. GGGGGCCACAGCAGAAGCGUUCACGUCGCGGCCCCUGUCAGAUUCUGGUGAUUCUGCGAAUUCUGCGGU	MET
22. GGGGGCCACAGCAGAUUCGUUCACGUCGCGGCCCCUGUCAGAUUCUGGUGAAUCUGCGAAUUCUGCUGU	NOT MET
23. GGGGGCCACAGCAGAACCGUUCACGUCGCGGCCCCUGUCAGAUUCUGGUGAAUCUGCGAAUUCGGCUGU	NOT MET
24. GGGGGCCACAGCAGAAGCGUUCACGACGCGGCCCCUGUCAGAUGCUGGUGAAUCUGCGAAUUCUGCUGU	MET
25. GGGGGCCACAGCAGAAGCGUUCACGUCGCGGCCCCUGUCAGAUCCUGGUGAAUCUGCGAAUUCUGCUGA	MET
26. UGGGGCCACAGCAGAAGCGUUCACGUCGCGGCCCCUGUCAGAUUCUGGUGAAUCUGCGAAUGCUGCUGU	NOT MET
27. GGGGGCCACAGCAGAAGCGUUCACGUCGCGGCCCCUGUCAGAUUCUUGUGCAUCUGCGAAUUCUGCUGU	MET
28. GGAGGCCACAGCAGAAGCGUUCACGUCGCGGCCCCUGUCAAAUUCUGGUGAAUCUGCGAAUUCUGCUGU	MET
29. GGGGGCGACAGCAGAAGCGUUCACGUCGCGGCCCCUGUCUGAUUCUGGUGAAUCUGCGAAUUCUGCUGU	NOT MET
30. GGGGGCCACAGCAGAAGCAUUCACGUCGCGGCCCCUGUCAGAUUCUCGUGAAUCUGCGAAUUCUGCUGU	MET
31. GGGGGCCACAGCAGAAGCGUUCACGUCGCCGCCCCUGUCAGAUUCUGGCGAAUCUGCGAAUUCUGCUGU	MET
32. GGGGGCCACAGGAGAAGCGUUCACGUCGCGGUCCCUGUCAGAUUCUGGUGAAUCUGCGAAUUCUGCUGU	MET
33. GGGGGCCACAGCAGAAGCCUUCACGUCGCGGCCCCUGUCAGAUUCUGGUGAAUCUGCGACUUCUGCUGU	NOT MET
34. GAGGGCCACAGCAGAAGCGUUCACGUCGCGGCCCCUGUAAGAUUCUGGUGAAUCUGCGAAUUCUGCUGU	NOT MET
35. GGGGGCCACAGCAGAAGCGUUCACGUCGCGGCACCUGUCAGAUUCUGGUGAAUCUGCGAAUUCUGGUGU	MET
36. GGGGGCCACAGCAGAAGCGUUCACGUCGCGGCCCCUGUCAGAUUCUGGUGAAUCUGCGAAUUCUGCCUU	MET
37. GGGGGCCACAGCAGAAGCGUUCACGUCGCGGCGCCUGUCAGAUUCUGGUGAAUCUGUGAAUUCUGCUGU	MET
38. GGGGGCCACAGCAGAUGCGUUCACGUCGCGGCCCCCGUCAGAUUCUGGUGAAUCUGCGAAUUCUGCUGU	MET
39. GGGCGCCACAGCAGAAGCGUUCACGUCGCGGCCGCUGUCAGAUUCUGGUGAAUCUGCGAAUUCUGCUGU	NOT MET
40. GGGGGCCACAGCAGAAGCGUUCACGUCGCGGCCCCCUUCAGAUUCUGGUGAAUCUGCGAAUUCUGCUGU	MET
41. GGGGGCCACAGCAGAAGCGUUCACGUCGCGGCCCCUGUCAGAUUCUAGUGAAACUGCGAAUUCUGCUGU	MET
42. GGGGGCCACAGCAGAAGCGUUCACGUCGCGGCCCCUGUCAUAUUCUGGUGAAUCUGCGAAUACUGCUGU	MET
43. UGGGGCCACAGCAGAAGCGUUCACGUCGCGGCCCCUGUCAGAUUCAGGUGAAUCUGCGAAUUCUGCUGU	NOT MET
44. GGGGCCCACAGCAGAAGCGUUCACGUCGCGGCCCCUGUCAGAUUCUGGUGAAUCUGCGAAUUCCGCUGU	MET
45. GGGGGCCACAGCACAAGCGUUCACGUCGCGGCCCCUGUCAGAUUCUGGUGAAUCUGCAAAUUCUGCUGU	MET
46. GGGGGCCACAGCAGAAGCGUUCACGUCGCGCCCCCUGGCAGAUUCUGGUGAAUCUGCGAAUUCUGCUGU	NOT MET
47. GGGGGCCACAGCAGAAGCGUUCACGUCGCGGCCCCUCUCAGAUUCUGGUGAAUCUGCGAAUUCUACUGU	MET
48. GGGGGCCACAGCAGAAGCGUUCACGUCGCGGCCCCUGUCAGAUUCUAGGGAAUCUGCGAAUUCUGCUGU	MET
49. GGGGGCCACAGCAGAAGCGAUCACGUCGCGGCCCGUGUCAGAUUCUGGUGAAUCUGCGAAUUCUGCUGU	NOT MET
50. GGUGGCCACAGCAGAAGCGUUCACGUCGCGGCCCCUGUCAGAUUCUGGUGAAUCUGCGAAUUCGGCUGU	NOT MET
51. GGGUGCCACAGCAGAAGCGUUCACGUCGCGGCACCUGUCAGAUUCUGGUGAAUCUGCGAAUUCUGCUGU	MET
52. GGGGGCCACAGCAGAAGCGUUCACGUCGCGGCCCCUGUCAGAUUCUGGUGAAUCUGCGAAUUCUGCCGG	MET
53. GGGGGCCACAGCAGAAGCGUUCACGUCGCGGCCCCUGCCACAUUCUGGUGAAUCUGCGAAUUCUGCUGU	MET
54. GGGGGCCACAGCAGACGCGUUCACGUCGCGGCCCCUGACAGAUUCUGGUGAAUCUGCGAAUUCUGCUGU	MET
55. GGGGGCCACAGCAGAAGCGUUCACGUCGCGGCCCCAGUCAGAUUCUGGUGAAUCUGCGAAUUCUGCCGU	MET
56. GGGGGCCACAGCAGAAGCGUUCACGUCGCGGCCCCUGUAAGAUUCUGGUGAAUCCGCGAAUUCUGCUGU	MET
57. GGGGGCCACAGCAGAAGCGUACACGUCGCGGCCCCUGUCAGAUGCUGGUGAAUCUGCGAAUUCUGCUGU	MET
58. GGGGGCCACACCAGAAGCGUUCACGUCGCGGCCCCUGUCAGAUUCUGGUGCAUCUGCGAAUUCUGCUGU	MET
59. GGAGGCCACAGCAGAAGCGUUCACGUCGCGGCCCCUGUAAGAUUCUGGUGAAUCUGCGAAUUCUGCUGU	MET
60. GGGGGCCACAGCAGAAGCGUUCACGUCGCGGCCCUUGUCAUAUUCUGGUGAAUCUGCGAAUUCUGCUGU	MET
61. GGGGGUCACAGCAGAAGCGUUCACGUCGCGGCCCCUGUCAGAUUCUGGUGCAUCUGCGAAUUCUGCUGU	MET
62. CGGGGCCACAGUAGAAGCGUUCACGUCGCGGCCCCUGUCAGAUUCUGGUGAAUCUGCGAAUUCUGCUGU	MET
63. GGGGGCCACAGCAGAAGCGUUCACGUCGGGACCCCUGUCAGAUUCUGGUGAAUCUGCGAAUUCUGCUGU	NOT MET
64. GGGGGCUACAGCAGAAGCGUUCACGUCGCGGCCCCUGUCAGAUUCUGGUGAAUCUGCGAACUCUGCUGU	MET
65. GGGGGCCACAGCAGAAGCGUUCACGUCGCGGCCCCUGUCAGAAUCUGGUGAUUCUGCGAAUUCUGCUGU	MET
66. GGGGGCCACAGCAGAAGCGUUCGCGUCGCGGCCCCUGUCAGAUUCUGGUGAAUCUGCGAAUACUGCUGU	MET
67. GGGGGCGACAGCAGAAGCGUUCACGUCGCGGCCCCUGUCAGAUUCUAGUGAAUCUGCGAAUUCUGCUGU	MET
68. GGGGGCGACAGCAGAAGCGUUCACGUCGCGGCCCCUGUCAGAUUCUGGUGAAUCUGCGAAGUCUGCUGU	NOT MET
69. GGGUGCCACAGCAGAAGCGGUCACGUCGCGGCCCCUGUCAGAUUCUGGUGAAUCUGCGAAUUCUGCUGU	NOT MET
70. GGGGGCCACAGCAGAAGCGUUCACGUCGCGGCCCCUGUCAGAGUCUGGUGAAUCUGCGAAUUCUUCUGU	MET
71. GGGGGCCACAGCAGAAGCGUUCACGUCGCGGCCCCUGUCAGAUUCUGGUGAAUGUGCGAAUUCUGCGGU	MET
72. GGGGGCCACAGCAGAAGCGUUCACGUCGCGGCCCCUGUCAGAUUCUGGUCAAUCUGCGAAUACUGCUGU	MET
73. GGGGGCCACAGCAGAAGCGUCCACGUCGCGGCCCCAGUCAGAUUCUGGUGAAUCUGCGAAUUCUGCUGU	NOT MET
74. GGGGGCCACAGCAGAAGCGAUCACGUCGCGGCCCCUGUCAGAUACUGGUGAAUCUGCGAAUUCUGCUGU	NOT MET
75. GGGGGCCACAGCAGAAGCGUUCACGUCGCGCCCCCUGUCAGAUUCUGCUGAAUCUGCGAAUUCUGCUGU	MET
76. GGGGGCCACAGCAGAAGCGUUCACGUCGCGGCCCCUGUCGGACUCUGGUGAAUCUGCGAAUUCUGCUGU	MET
77. GGGGGCCCCAGCAGAAGCAUUCACGUCGCGGCCCCUGUCAGAUUCUGGUGAAUCUGCGAAUUCUGCUGU	NOT MET
78. GGGGGCCACAGCAGAAGCGUUUACGUCGCGGCCCCUGUCAGAUGCUGGUGAAUCUGCGAAUUCUGCUGU	MET
79. GGGGGCCACAGCAGAACCGUUCACGUCGCGGCCCCUGUCAGAUUCUGGUGAAUCUGCGAACUCUGCUGU	NOT MET
80. GGGGGCCACAGCAGAAGCGUUCACCUCGCGGCCCCUGUCAGAUUCUGGUGAAUCUGCGAAUUCUGCGGU	MET
81. GGGGGCCACAGCAGAAGCGUUCACGUCGCGGCCCCUGUCAGCUCCUGGUGAAUCUGCGAAUUCUGCUGU	MET
82. GGGGGCCACAGCAGAAGCGUUCACGUCGUGGCCCCUGUCAGAUUGUGGUGAAUCUGCGAAUUCUGCUGU	MET
83. GGGGGCCACAGCAGAAGCGUUCACGUCGCGGCCCCUGUCAGAUUCGGGUGAAUCUGCGAAUUCGGCUGU	MET
84. GUGGGCCACAGCAGAAGCGUUCACGUCGCGGCCCCUGUCAGAUUCUGGUGAAUCUGCGAACUCUGCUGU	NOT MET
85. GGGGGCCACAGCAGAAGCGUUCACGUCGCGGCCCAUGUCAGAUUCUGGUGAAUCUGCGAAUUCUUCUGU	NOT MET
86. GGGGGCCACAGCUGAAGCGUUCACGUCGCGGCCCCUGUCAGAUGCUGGUGAAUCUGCGAAUUCUGCUGU	MET
87. GGGGGCCACAGCAGAAGCGUUCACGUCGCGUCCCCUGUCAGAUUCUGUUGAAUCUGCGAAUUCUGCUGU	MET
88. GGGGGCCACAGCAGAAGCGUUCACGUCGCGGGUCCUGUCAGAUUCUGGUGAAUCUGCGAAUUCUGCUGU	MET
